method description: T. gondii ME49Luc in HeLa cells, luciferase assay, 72 h, no IFN-y (AID 1259421)
recorded conditions: concentration not given here
About 610 (9.5%) of roughly 6,400 compounds were called active. No stated cut-off is given here; in the data, active means activity change below about -70%; inconclusive means no clear call, values can overlap the other calls; inactive means above that. Only a selection was taken, and actives are over-represented in it overall.
Classes used: active, inactive

[[record]]
compound = "O=C(CO)C(O)C(O)C(O)CO (stereo not given)"
qualitative_label = "inactive"

[[record]]
compound = "Cc1nc(N)sc1-c1ccnc(Nc2ccc(N3CCOCC3)cc2)n1"
qualitative_label = "active"

[[record]]
compound = "O=C(O)c1ccc(Nc2ncc3c(n2)-c2ccc(Cl)cc2C(c2c(F)cccc2F)=NC3)cc1"
qualitative_label = "inactive"

[[record]]
compound = "COc1cc(OC)cc(OC)c1"
qualitative_label = "inactive"

[[record]]
compound = "Cc1cc(=O)c(C(=O)N[C@@H](C(=O)N[C@@H]2C(=O)N3C(C(=O)O)=C(CSc4nnnn4C)CS[C@H]23)c2ccc(O)cc2)c[nH]1"
qualitative_label = "inactive"

[[record]]
compound = "CO/N=C(\\C(=O)N[C@@H]1C(=O)N2C(C(=O)OCOC(=O)C(C)(C)C)=C(C)CS[C@H]12)c1csc(N)n1"
qualitative_label = "inactive"

[[record]]
compound = "CC(=O)N[C@H]1[C@H]([C@H](O)[C@H](O)CO)O[C@](O)(C(=O)O)C[C@@H]1O"
qualitative_label = "inactive"

[[record]]
compound = "Cc1cccc(Nc2nc(-c3ccncc3)cs2)c1"
qualitative_label = "inactive"

[[record]]
compound = "O=c1[nH]c2ccccc2c(=O)n1CCCN1CCN(c2ccccc2)CC1"
qualitative_label = "inactive"

[[record]]
compound = "COC(=O)[C@H](Cc1ccc([N+](=O)[O-])cc1)NC(=O)c1cccc2ccccc12"
qualitative_label = "inactive"

[[record]]
compound = "CCn1c2ccccc2c2cc(Nc3ccnc(NCCCN4CCOCC4)n3)ccc21"
qualitative_label = "inactive"

[[record]]
compound = "CCOc1ccccc1O[C@H](c1ccccc1)[C@H]1CNCCO1 (racemic)"
qualitative_label = "inactive"

[[record]]
compound = "CC[C@]1(O)CC2CN(CCc3c([nH]c4ccccc34)[C@@](C(=O)OC)(c3cc4c(cc3OC)N(C)[C@H]3[C@@](O)(C(=O)OC)[C@H](OC(C)=O)[C@]5(CC)C=CCN6CC[C@]43[C@@H]65)C2)C1 (stereo not given in full)"
qualitative_label = "active"

[[record]]
compound = "CCC1=C[C@@H]2CN(C1)Cc1c([nH]c3ccccc13)[C@@](C(=O)OC)(c1cc3c(cc1OC)N(C)[C@H]1[C@@](O)(C(=O)OC)[C@H](OC(C)=O)[C@]4(CC)C=CCN5CC[C@]31[C@@H]54)C2"
qualitative_label = "inactive"

[[record]]
compound = "CC(C)(C)NCC(O)COc1nsnc1N1CCOCC1 (stereo not given)"
qualitative_label = "inactive"

[[record]]
compound = "CO/N=C(/C(=O)N[C@@H]1C(=O)N2C(C(=O)O)=C(C[n+]3cccc4c3CCC4)CS[C@H]12)c1csc(N)n1"
qualitative_label = "inactive"

[[record]]
compound = "CNC(=O)c1nn(C)c2c1C(C)(C)Cc1cnc(Nc3ccc(N4CCN(C)CC4)cc3)nc1-2"
qualitative_label = "active"

[[record]]
compound = "CC1=CC(=O)C2C(C)(C)CCC[C@]2(C)[C@@]1(O)CCc1ccoc1 (stereo not given in full)"
qualitative_label = "inactive"

[[record]]
compound = "COc1cc(OC)c(-c2c(OC)cc(OC)cc2OC)c(OC)c1"
qualitative_label = "inactive"

[[record]]
compound = "CC(=O)NC[C@H]1CN(c2ccc(N3CCN(C(=O)CO)CC3)c(F)c2)C(=O)O1"
qualitative_label = "inactive"

[[record]]
compound = "N#CC(C#N)=C(N)/C(C#N)=C/c1cc(O)c(O)c(O)c1"
qualitative_label = "inactive"

[[record]]
compound = "CCCCC[C@H](O)/C=C/[C@@H]1[C@H]2C/C(=C/CCCC(=O)O)O[C@H]2C[C@H]1O"
qualitative_label = "inactive"

[[record]]
compound = "CCN(CC)CCC(=O)N1c2ccccc2Sc2ccc(Cl)cc21"
qualitative_label = "inactive"

[[record]]
compound = "CCC1(O)CC2CN(CCc3c([nH]c4ccccc34)C(C(=O)OC)(c3cc4c(cc3OC)N(C)C3C(O)(C(=O)OC)C(C(=O)OC)C5(CC)C=CCN6CCC43C65)C2)C1 (stereo not given)"
qualitative_label = "active"

[[record]]
compound = "CCCCCCCCCCCCCCCCCCCCCC(=O)Nc1ccn([C@@H]2O[C@H](CO)[C@@H](O)[C@@H]2O)c(=O)n1"
qualitative_label = "inactive"


Taken from PubChem BioAssay AID1259421.
